# test.system: UniProt:P9WKK7
# Sequence (P9WKK7 1-428): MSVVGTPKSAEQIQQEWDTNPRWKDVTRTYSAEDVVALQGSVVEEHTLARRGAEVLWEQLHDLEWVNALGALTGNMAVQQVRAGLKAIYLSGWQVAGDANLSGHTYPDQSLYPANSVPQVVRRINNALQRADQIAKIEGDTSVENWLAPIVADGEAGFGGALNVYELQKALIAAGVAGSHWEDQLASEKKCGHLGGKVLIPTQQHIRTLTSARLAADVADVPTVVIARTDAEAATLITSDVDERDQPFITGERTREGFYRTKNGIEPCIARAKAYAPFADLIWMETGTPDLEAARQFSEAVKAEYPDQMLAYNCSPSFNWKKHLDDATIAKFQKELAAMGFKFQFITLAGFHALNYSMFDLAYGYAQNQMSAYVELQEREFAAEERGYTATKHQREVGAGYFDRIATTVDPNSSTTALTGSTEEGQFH
property: IC50

CCOC(=O)c1ccc(CC(=O)c2oc3cc(O)ccc3c2C)o1 : > 100 µM

Lab request: please report IC50 under test system UniProt:P9WKK7 for CCOC(=O)c1cc2cc(CC(=O)c3ccc(O)cc3O)ccc2o1
> 100 µM

# credit: paper PMC6072051
